# tested system: SCRIB_3, Q14160
# Sequence (Q14160 999-1103): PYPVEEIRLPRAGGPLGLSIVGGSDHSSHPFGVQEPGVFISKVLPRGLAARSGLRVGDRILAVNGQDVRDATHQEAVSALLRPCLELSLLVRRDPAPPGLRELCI
# test name: holdup assay
# Set-up: key: below the threshold = too weak to quantify, mostly under pKd 3.1 to 4
# condition set: plain residues with an end cap or a label only (N-terminal biotin on a linker: ttds)
In this section, each of the binders is paired with its reported pKd.
Format: numeric value only, no unit, no commentary.

Reported pKd ( GQDSREETQL [KCNT2, Q6UVM3] ) = 5.07

Reported pKd for STLTIFETAL [ABCC4, O15439] was 5.59
